Biological target: Nanoluciferase-BRD9 fusion protein (Homo sapiens (Human))
Sequence (Q9H8M2 whole entry, the tested form may be a part): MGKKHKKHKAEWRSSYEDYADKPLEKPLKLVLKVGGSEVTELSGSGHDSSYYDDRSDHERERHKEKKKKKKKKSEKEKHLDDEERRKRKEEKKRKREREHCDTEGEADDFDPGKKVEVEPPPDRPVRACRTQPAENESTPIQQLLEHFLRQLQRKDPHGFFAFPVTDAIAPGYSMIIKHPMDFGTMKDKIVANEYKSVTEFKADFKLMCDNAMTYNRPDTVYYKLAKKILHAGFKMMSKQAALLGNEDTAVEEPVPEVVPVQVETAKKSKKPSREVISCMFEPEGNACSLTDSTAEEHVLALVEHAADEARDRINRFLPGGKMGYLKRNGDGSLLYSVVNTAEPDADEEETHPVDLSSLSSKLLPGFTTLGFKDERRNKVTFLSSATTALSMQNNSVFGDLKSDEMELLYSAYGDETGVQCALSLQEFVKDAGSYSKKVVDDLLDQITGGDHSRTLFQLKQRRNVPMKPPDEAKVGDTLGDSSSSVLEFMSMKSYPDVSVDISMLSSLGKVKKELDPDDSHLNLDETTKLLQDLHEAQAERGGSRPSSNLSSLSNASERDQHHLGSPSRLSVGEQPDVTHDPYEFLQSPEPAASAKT
Experiment: SYO1 BRD9 NanoLuc degradation assay
Assay type: cell-based
Conditions: Table 5C; SYO-1 cells expressing 3×FLAG-NLuc-BRD9, 6 hours; read-out: SYO1 BRD9-NanoLuc degradation IC50
Exercise: for every item that follows, state its recorded DC50.

DC50 for COc1cc(-c2cn(C)c(=O)c(C)c2C)cc(OC)c1CN1CCC2(C1)CN(c1ccc3c(c1)C(=O)N(C1CCC(=O)NC1=O)C3=O)C2 (stereo not drawn) [Compound D430] ?
< 10 nM

What do we get for COc1cc(-c2cc(C)c(=O)n(C)c2C)cc(OC)c1CN1CCN(c2ccc3c(c2)C(=O)N(C2CCC(=O)NC2=O)C3)CC1 (stereo not drawn) [Compound D427] ?
< 10 nM

What do we get for COc1cc(-c2cn(C)c(=O)c3cnccc23)cc(OC)c1CN1CCC2(CC1)CN(c1nccc(C(=O)NC3CCC(=O)NC3=O)n1)C2 (stereo not drawn) [Compound D472] ?
> 1000 nM

What do we get for COc1cc(-c2cc(C)c(=O)n(C)c2)cc(OC)c1CN1CC(/C=C/c2ccc3c(c2)C(=O)N(C2CCC(=O)NC2=O)C3)C1 (stereo not drawn) [Compound D457] ?
< 10 nM

What do we get for COc1cc(-c2cn(C)c(=O)c3cnn(C)c23)cc(OC)c1CN1CCC2(CC1)CN(c1ccc3c(c1)C(=O)N(C1CCC(=O)NC1=O)C3)C2 (stereo not drawn) [Compound D414] ?
< 10 nM

What do we get for COc1cc(-c2cn(C)c(=O)c3cnccc23)cc(OC)c1CN1CC(Oc2ccc3c(c2)C(=O)N(C2CCC(=O)N(COC(=O)[C@@H](N)C(C)C)C2=O)C3=O)C1 (stereo partly drawn) [Compound D381] ?
< 10 nM

What do we get for COc1cc(-c2c(C)n(C)c(=O)c3[nH]c(C)cc23)cc(OC)c1CN1CCC2(CC1)CN(c1ccc3c(c1)C(=O)N(C1CCC(=O)NC1=O)C3=O)C2 (stereo not drawn) [Compound D446] ?
> 1000 nM

What do we get for Cc1cc(-c2ccc(N3CCN(c4ccc5c(c4)C(=O)N(C4CCC(=O)NC4=O)C5)CC3)cc2)cn(C)c1=O (stereo not drawn) [Compound D459] ?
< 10 nM

What do we get for COc1cc(-c2cn(C)c(=O)c3cnccc23)cc(OC)c1CN1CCC(c2cc(=O)n(C3CCC(=O)NC3=O)c(C)n2)CC1 (stereo not drawn) [Compound D394] ?
> 1000 nM

What do we get for COc1cc(-c2cn(C)c(=O)c3cn(OC)nc23)cc(OC)c1CN1CCC2(CC1)CN(c1ccc3c(c1)C(=O)N(C1CCC(=O)NC1=O)C3)C2 (stereo not drawn) [Compound D462] ?
< 10 nM

What do we get for COc1cc(-c2c(C)n(C)c(=O)c3[nH]cc(C)c23)cc(OC)c1CN1CCC2(CC1)CN(c1ccc3c(c1)C(=O)N(C1CCC(=O)NC1=O)C3=O)C2 (stereo not drawn) [Compound D445] ?
> 1000 nM

What do we get for COc1cc(-c2cn(C)c(=O)c3cnccc23)cc(OC)c1CN1CCC(c2cnn(C3CCC(=O)NC3=O)c2)CC1 (stereo not drawn) [Compound D393] ?
10 to 100 nM
